# System: LPS triggered IL-10 secretion in monocyte-derived macrophages (MdM)
# procedure_text: MdM assay: LPS-triggered IL-10 (ELISA)
# Type: cell-based, human
# condition_context: maximal fold change vs LPS only, median across assays
measured_metric: IL-10 FCmax median

Worked examples, 4 compounds total:
[
  {
    "compound": "CCn1cc(-c2cnc3c(c2)ncn3-c2cc(OC)c(C(=O)NCC(F)(F)F)c(OC)c2)cn1",
    "test_target": "LPS triggered IL-10 secretion in monocyte-derived macrophages (MdM)",
    "IL-10 FCmax median": "++ (>1.5-4.5)"
  },
  {
    "compound": "COc1cc(-c2cnc3cc(-c4cn[nH]c4)ccn23)cc(OC)c1C(=O)N[C@H](C)C(F)(F)F",
    "test_target": "LPS triggered IL-10 secretion in monocyte-derived macrophages (MdM)",
    "IL-10 FCmax median": "+++ (>4.5)"
  },
  {
    "compound": "COc1cc(-c2cnc3cc(-c4cnn(C)c4)ccn23)cc(OC)c1C(=O)NCC(F)(F)F",
    "test_target": "LPS triggered IL-10 secretion in monocyte-derived macrophages (MdM)",
    "IL-10 FCmax median": "++ (>1.5-4.5)"
  },
  {
    "compound": "COc1cc(-c2cnc3cc(-c4cnn(C5CN(CCC#N)C5)c4)ccn23)cc(OC)c1C(=O)NCC(F)(F)F",
    "test_target": "LPS triggered IL-10 secretion in monocyte-derived macrophages (MdM)",
    "IL-10 FCmax median": "++ (>1.5-4.5)"
  }
]

Give its IL-10 FCmax median value. Item: COc1cc(-c2cnc3cc(-c4cnnc(C)c4)ccn23)cc(OC(F)F)c1C(=O)NC1CC1
++ (>1.5-4.5)

What does the record list as IL-10 FCmax median for COc1cc(-n2cnc3cc(-c4cnn(C5CC5)c4)ccc32)cc(OC)c1C(=O)NCC(F)(F)F ?
++ (>1.5-4.5)

Look up IL-10 FCmax median for this compound: COc1cc(-c2cnc3cc(-c4cn[nH]c4)ccn23)cc(OC)c1C(=O)NCC(F)(F)F
+++ (>4.5)

What value of measured IL-10 FCmax median is listed for CCCNC(=O)c1c(OC)cc(-n2cnc3cc(-c4cnn(CC)c4)ccc32)cc1OC ?
++ (>1.5-4.5)

---

The entries below are paired with their reported pIC50.
# test_target: SIK1 (Homo sapiens)
# Construct: purchased Carna Biosciences 02-131
# Sequence (P57059 whole entry): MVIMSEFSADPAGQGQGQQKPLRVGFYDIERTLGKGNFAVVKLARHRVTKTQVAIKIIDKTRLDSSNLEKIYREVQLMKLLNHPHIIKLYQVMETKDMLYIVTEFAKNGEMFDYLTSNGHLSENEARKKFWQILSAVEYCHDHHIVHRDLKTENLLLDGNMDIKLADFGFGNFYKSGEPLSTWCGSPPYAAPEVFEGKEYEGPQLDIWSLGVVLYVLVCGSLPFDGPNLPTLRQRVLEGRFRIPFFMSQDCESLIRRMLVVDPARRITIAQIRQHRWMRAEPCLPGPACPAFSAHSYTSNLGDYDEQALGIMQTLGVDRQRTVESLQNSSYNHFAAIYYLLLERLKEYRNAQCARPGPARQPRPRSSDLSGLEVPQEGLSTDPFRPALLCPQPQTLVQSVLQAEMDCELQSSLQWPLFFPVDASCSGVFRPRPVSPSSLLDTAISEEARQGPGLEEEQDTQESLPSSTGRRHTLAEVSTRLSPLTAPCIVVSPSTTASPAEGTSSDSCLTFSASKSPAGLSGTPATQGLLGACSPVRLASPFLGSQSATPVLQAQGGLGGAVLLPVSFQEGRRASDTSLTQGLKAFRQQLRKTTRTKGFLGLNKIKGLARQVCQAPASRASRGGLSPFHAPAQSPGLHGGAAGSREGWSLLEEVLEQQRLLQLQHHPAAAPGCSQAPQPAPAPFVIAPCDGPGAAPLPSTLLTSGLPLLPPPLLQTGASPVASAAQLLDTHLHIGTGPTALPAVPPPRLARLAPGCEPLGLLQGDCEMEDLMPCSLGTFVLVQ
# procedure_text: biochemical
# condition_context: ADP-Glo SIK kinase assay
pIC50: −log10 of the molar value.

[
  {
    "compound": "COc1cc(-c2cnc3cc(-c4cnnc(C)c4)ccn23)cc(OC)c1C(=O)NCC(F)(F)F",
    "test_target": "SIK1 (Homo sapiens)",
    "result": "6.30 to 7.00"
  },
  {
    "compound": "COc1cc(-c2cnc3cc(-c4cnn(C)c4)c(OC(C)C(=O)O)cn23)cc(OC(F)F)c1C(=O)NC1CC1 (stereo not shown)",
    "test_target": "SIK1 (Homo sapiens)",
    "result": "7.00 to 8.00"
  },
  {
    "compound": "COc1cc(-c2cnc3cc(-c4cn(C)cn4)ccn23)cc(OC)c1C(=O)N[C@H](C)C(F)(F)F",
    "test_target": "SIK1 (Homo sapiens)",
    "result": "7.00 to 8.00"
  }
]

Please find the next compound below.
What value of pIC50 has been recorded for this entry: COc1cc(-c2cnc3cc(-c4cnnc(C)c4)ccn23)cc(OC(F)F)c1C(=O)NC1CC1
7.00 to 8.00
